FYI, the data here is from patent US6573258B2.

Each item that follows carries a reported τ^air, triplet lifetime.
assayRemarks: Triplet state properties by laser flash photolysis
Assay type: physicochemical
protocolConditions: phosphate-buffered solution, air
measuredMetric: τ^air, triplet lifetime

# smilesText, measuredMetric, reportedValue
measured = [
    ("CCCCCCCCCCCCCCCCCC[n+]1ccc(-c2c3nc(c(-c4cc[n+](C)cc4)c4ccc([nH]4)c(-c4cc[n+](C)cc4)c4nc(c(-c5cc[n+](C)cc5)c5ccc2[nH]5)C=C4)C=C3)cc1.Cl.Cl.[Cl-].[Cl-].[Cl-].[Cl-]", "τ^air, triplet lifetime", "21 μs"),
    ("CCCCCCCCCC[n+]1ccc(-c2c3nc(c(-c4cc[n+](C)cc4)c4ccc([nH]4)c(-c4cc[n+](C)cc4)c4nc(c(-c5cc[n+](C)cc5)c5ccc2[nH]5)C=C4)C=C3)cc1.Cl.Cl.[Cl-].[Cl-].[Cl-].[Cl-]", "τ^air, triplet lifetime", "20 μs"),
    ("CCCCCCCCCCCCCCCCCCCCCC[n+]1ccc(-c2c3nc(c(-c4cc[n+](C)cc4)c4ccc([nH]4)c(-c4cc[n+](C)cc4)c4nc(c(-c5cc[n+](C)cc5)c5ccc2[nH]5)C=C4)C=C3)cc1.Cl.Cl.[Cl-].[Cl-].[Cl-].[Cl-]", "τ^air, triplet lifetime", "0.1 μs"),
]

* * *

assayRemarks: Fluorescence decay times (phase-shift method)
Format: physicochemical
protocolConditions: ca. 5 μM, air-equilibrated buffer pH 7.4, λexc = 420 nm, λem > 600 nm
Each item that follows carries a reported τ1, fluorescence decay time of fast component.
measuredMetric: τ1, fluorescence decay time of fast component (ns)

# compound, unitName, reportedValue
rows = [
    ("C[n+]1ccc(-c2c3nc(c(-c4cc[n+](C)cc4)c4ccc([nH]4)c(-c4cc[n+](C)cc4)c4nc(c(-c5cc[n+](C)cc5)c5ccc2[nH]5)C=C4)C=C3)cc1.Cc1ccc(S(=O)(=O)[O-])cc1.Cc1ccc(S(=O)(=O)[O-])cc1.Cc1ccc(S(=O)(=O)[O-])cc1.Cc1ccc(S(=O)(=O)[O-])cc1 [Porphyrin T4MPyP, reference compound]", "ns", 1.0),
    ("CCCCCCCCCCCCCC[n+]1ccc(-c2c3nc(c(-c4cc[n+](C)cc4)c4ccc([nH]4)c(-c4cc[n+](C)cc4)c4nc(c(-c5cc[n+](C)cc5)c5ccc2[nH]5)C=C4)C=C3)cc1.Cl.Cl.[Cl-].[Cl-].[Cl-].[Cl-]", "ns", 1.0),
    ("CCCCCCCCCC[n+]1ccc(-c2c3nc(c(-c4cc[n+](C)cc4)c4ccc([nH]4)c(-c4cc[n+](C)cc4)c4nc(c(-c5cc[n+](C)cc5)c5ccc2[nH]5)C=C4)C=C3)cc1.Cl.Cl.[Cl-].[Cl-].[Cl-].[Cl-]", "ns", 1.1),
]

* * *

assayRemarks: Fluorescence quantum yields
Type: physicochemical
protocolConditions: in PBS
Each item that follows carries a reported ΦF (PBS), fluorescence quantum yield.

# molecule, ΦF (PBS), fluorescence quantum yield
data = [
    ("CCCCCCCCCC[n+]1ccc(-c2c3nc(c(-c4cc[n+](C)cc4)c4ccc([nH]4)c(-c4cc[n+](C)cc4)c4nc(c(-c5cc[n+](C)cc5)c5ccc2[nH]5)C=C4)C=C3)cc1.Cl.Cl.[Cl-].[Cl-].[Cl-].[Cl-]", 0.015),
    ("CCCCCCCCCCCCCCCCCC[n+]1ccc(-c2c3nc(c(-c4cc[n+](C)cc4)c4ccc([nH]4)c(-c4cc[n+](C)cc4)c4nc(c(-c5cc[n+](C)cc5)c5ccc2[nH]5)C=C4)C=C3)cc1.Cl.Cl.[Cl-].[Cl-].[Cl-].[Cl-]", 0.022),
    ("CCCCCCCCCCCCCC[n+]1ccc(-c2c3nc(c(-c4cc[n+](C)cc4)c4ccc([nH]4)c(-c4cc[n+](C)cc4)c4nc(c(-c5cc[n+](C)cc5)c5ccc2[nH]5)C=C4)C=C3)cc1.Cl.Cl.[Cl-].[Cl-].[Cl-].[Cl-]", 0.019),
    ("CCCCCCCCCCCCCCCCCCCCCC[n+]1ccc(-c2c3nc(c(-c4cc[n+](C)cc4)c4ccc([nH]4)c(-c4cc[n+](C)cc4)c4nc(c(-c5cc[n+](C)cc5)c5ccc2[nH]5)C=C4)C=C3)cc1.Cl.Cl.[Cl-].[Cl-].[Cl-].[Cl-]", 0.001),
    ("C[n+]1ccc(-c2c3nc(c(-c4cc[n+](C)cc4)c4ccc([nH]4)c(-c4cc[n+](C)cc4)c4nc(c(-c5cc[n+](C)cc5)c5ccc2[nH]5)C=C4)C=C3)cc1.Cc1ccc(S(=O)(=O)[O-])cc1.Cc1ccc(S(=O)(=O)[O-])cc1.Cc1ccc(S(=O)(=O)[O-])cc1.Cc1ccc(S(=O)(=O)[O-])cc1 [Porphyrin T4MPyP, reference compound]", 0.017),
]

* * *

Each item that follows carries a reported Growth inhibition (%) S. aureus.
Tested on: S. aureus cells
assayRemarks: Growth inhibition after 5 min incubation with porphyrin and white-light irradiation
Format: cell-based, Staphylococcus aureus
protocolConditions: Table 5: 0.5 μM, 5 min incubation, 5 min white light (150 mW/cm^2)

# smilesText, Growth inhibition (%) S. aureus
rows = [
    ("CCCCCCCCCCCCCCCCCC[n+]1ccc(-c2c3nc(c(-c4cc[n+](C)cc4)c4ccc([nH]4)c(-c4cc[n+](C)cc4)c4nc(c(-c5cc[n+](C)cc5)c5ccc2[nH]5)C=C4)C=C3)cc1.Cl.Cl.[Cl-].[Cl-].[Cl-].[Cl-]", 42),
    ("CCCCCCCCCC[n+]1ccc(-c2c3nc(c(-c4cc[n+](C)cc4)c4ccc([nH]4)c(-c4cc[n+](C)cc4)c4nc(c(-c5cc[n+](C)cc5)c5ccc2[nH]5)C=C4)C=C3)cc1.Cl.Cl.[Cl-].[Cl-].[Cl-].[Cl-]", 74),
    ("CCCCCCCCCCCCCC[n+]1ccc(-c2c3nc(c(-c4cc[n+](C)cc4)c4ccc([nH]4)c(-c4cc[n+](C)cc4)c4nc(c(-c5cc[n+](C)cc5)c5ccc2[nH]5)C=C4)C=C3)cc1.Cl.Cl.[Cl-].[Cl-].[Cl-].[Cl-]", 73),
    ("CCCCCCCCCCCCCCCCCCCCCC[n+]1ccc(-c2c3nc(c(-c4cc[n+](C)cc4)c4ccc([nH]4)c(-c4cc[n+](C)cc4)c4nc(c(-c5cc[n+](C)cc5)c5ccc2[nH]5)C=C4)C=C3)cc1.Cl.Cl.[Cl-].[Cl-].[Cl-].[Cl-]", 27),
]

* * *

assayRemarks: Photosensitized photooxidation of NATA
protocolConditions: 10 μM NATA, aqueous 2% SDS
Protocol: The photosensitizing activity of the various porphyrins was tested by measuring their efficiency in promoting the photooxidation of N-acetyl-L-tryptophanamide (NATA, Aldrich Chem. Co.) as a model biological substrate. […] The photosensitized modification of NATA was followed by measuring the decrease in the intensity of its fluorescence emission spectrum (300-450 nm) upon excitation with 290 nm-light at various irradiation times. […]
Each item that follows carries a reported ΦSDS × 10^3, quantum yield for photo-oxidation of NATA.
measuredMetric: ΦSDS × 10^3, quantum yield for photo-oxidation of NATA

# compound, reportedValue
rows = [
    ("CCCCCCCCCC[n+]1ccc(-c2c3nc(c(-c4cc[n+](C)cc4)c4ccc([nH]4)c(-c4cc[n+](C)cc4)c4nc(c(-c5cc[n+](C)cc5)c5ccc2[nH]5)C=C4)C=C3)cc1.Cl.Cl.[Cl-].[Cl-].[Cl-].[Cl-] [Porphyrin C10]", 0.64),
    ("CCCCCCCCCCCCCC[n+]1ccc(-c2c3nc(c(-c4cc[n+](C)cc4)c4ccc([nH]4)c(-c4cc[n+](C)cc4)c4nc(c(-c5cc[n+](C)cc5)c5ccc2[nH]5)C=C4)C=C3)cc1.Cl.Cl.[Cl-].[Cl-].[Cl-].[Cl-] [Porphyrin C14]", 0.71),
]
